Where do these numbers come from? They come from patent US8138191B2.

Field: average number of tumors per injection site. Provide a value for each of the molecules that follow.
Tested on: SHP-77 human SCLC cell line tumor xenografts
Experiment: Nude mouse model of human SCLC, SHP-77 xenografts
Type: in vivo
Details: IP on alternate days from Day 3, 31 days
One number for each entry.

As a guide, the following entries are already answered.
INSERT INTO measurements (molecule, measurement) VALUES
  ('S=C(N/N=C1/CCCc2cccnc21)N1CCN(c2ccccn2)CC1', 0.28),
  ('CN1CCN(C(=S)NN=C2c3ncccc3-c3cccnc32)CC1', 0.38),
  ('CC(=O)O[C@@]12CO[C@@H]1C[C@H](O)[C@@]1(C)C(=O)[C@H](O)C3=C(C)[C@@H](OC(=O)[C@H](O)[C@@H](NC(=O)OC(C)(C)C)c4ccccc4)C[C@@](O)([C@@H](OC(=O)c4ccccc4)[C@H]21)C3(C)C [Taxotere®, docetaxel, reference compound]', 0.48);

Kindly review the next molecule as well.
Report average number of tumors per injection site for N.N.[Cl][Pt][Cl] [Cisplatin, cis-diamminedichloroplatinum, reference compound] tested on SHP-77 human SCLC cell line tumor xenografts.
0.48

---

Assay: Half-life and liver clearance rate by human liver microsomes (HLM) at 0.5 mg/mL
Type: in vitro ADME
Settings: liver microsomes, 10 μM, read-out: T1/2
Assign half-life at 10 µM to each entry below.
Numbers only, in h.

INSERT INTO measurements (record_smiles, measurement_type, unit_symbol, measurement) VALUES
  ('CN1CCN(C(=S)NN=C2c3ncccc3-c3cccnc32)CC1', 'half-life at 10 µM', 'h', 7.01);

Now for the compound whose half-life at 10 µM we want.
What does the data say about its half-life at 10 µM? Entry: S=C(N/N=C1/CCCc2cccnc21)N1CCN(c2ccccn2)CC1
4.76

---

Assay: Half-life and liver clearance rate by human liver microsomes (HLM) at 0.5 mg/mL
Format: in vitro ADME
Conditions: liver microsomes, 1 μM
I'd appreciate it if you could supply microsomal CLint at 1 µM values for the items below.
One number for each entry, in µL/min/mg.

INSERT INTO results (record_smiles, measurement_type, measurement) VALUES
  ('S=C(N/N=C1/CCCc2cccnc21)N1CCN(c2ccccn2)CC1', 'microsomal CLint at 1 µM', 12);

# ---- query compound ----
Give the measured microsomal CLint at 1 µM of CN1CCN(C(=S)NN=C2c3ncccc3-c3cccnc32)CC1 .
4.2

---

Target: CYP2D6 (Homo sapiens, UniProt P10635)
Sequence (P10635 whole entry): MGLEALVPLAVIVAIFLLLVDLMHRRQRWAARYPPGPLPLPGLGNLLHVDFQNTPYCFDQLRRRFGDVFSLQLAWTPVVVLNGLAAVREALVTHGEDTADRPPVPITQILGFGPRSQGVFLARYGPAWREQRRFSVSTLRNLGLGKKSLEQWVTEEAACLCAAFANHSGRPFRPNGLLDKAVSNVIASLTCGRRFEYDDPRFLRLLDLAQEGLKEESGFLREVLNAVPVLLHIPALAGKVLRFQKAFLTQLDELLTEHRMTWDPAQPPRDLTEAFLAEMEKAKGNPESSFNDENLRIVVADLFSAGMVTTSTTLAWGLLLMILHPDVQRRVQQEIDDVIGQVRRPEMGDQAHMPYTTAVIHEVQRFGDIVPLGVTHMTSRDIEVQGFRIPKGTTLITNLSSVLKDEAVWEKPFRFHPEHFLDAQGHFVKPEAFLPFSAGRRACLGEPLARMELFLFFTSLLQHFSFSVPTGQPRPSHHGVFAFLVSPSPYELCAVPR
Assay: in vitro
Type: in vitro ADME
Settings: both sexes, liver microsomes, pH 7.4, probe dextromethorphan, CYP2D6, 10 μM, read-out: percent inhibition
measurement.type: inhibition at 15 min, 10 µM

Requested field: inhibition at 15 min, 10 µM. Item: S=C(N/N=C1/CCCc2cccnc21)N1CCN(c2ccccn2)CC1 [COTI-2]
< 50%

---

Test: in vitro
Type: in vitro ADME
Conditions: human, % Recovery 2nd
measurement.type: recovery at 10 µM
Write the numeric value and append its unit.

Value lookup for recovery at 10 µM; key = S=C(N/N=C1/CCCc2cccnc21)N1CCN(c2ccccn2)CC1 [COTI-2]
2.9%

---

Biological target: CYP2C9 (Homo sapiens, UniProt P11712)
Sequence (P11712 whole entry): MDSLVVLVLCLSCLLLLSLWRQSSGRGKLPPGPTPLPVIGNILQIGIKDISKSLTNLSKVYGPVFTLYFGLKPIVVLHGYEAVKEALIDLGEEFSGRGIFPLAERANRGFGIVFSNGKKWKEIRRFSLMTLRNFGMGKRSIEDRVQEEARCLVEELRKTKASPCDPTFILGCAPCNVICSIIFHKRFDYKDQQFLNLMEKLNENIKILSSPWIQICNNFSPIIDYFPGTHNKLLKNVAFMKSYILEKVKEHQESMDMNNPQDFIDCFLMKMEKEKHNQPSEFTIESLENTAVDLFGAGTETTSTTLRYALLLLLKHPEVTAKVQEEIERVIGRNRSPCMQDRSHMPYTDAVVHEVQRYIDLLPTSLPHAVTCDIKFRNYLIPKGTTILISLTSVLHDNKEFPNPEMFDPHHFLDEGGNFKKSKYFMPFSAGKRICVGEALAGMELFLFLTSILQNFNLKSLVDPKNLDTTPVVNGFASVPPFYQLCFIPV
Test: in vitro
Conditions: both, human liver microsomes, pH 7.4, probe diclofenac (10 µM)
measurement.type: inhibition at 15 min, 10 µM (%)
Give bare numbers, in %.

Would you kindly share the measured inhibition at 15 min, 10 µM for S=C(N/N=C1/CCCc2cccnc21)N1CCN(c2ccccn2)CC1 ?
2

---

Target: CYP3A (Homo sapiens, UniProt P08684)
Sequence (P08684 2-503): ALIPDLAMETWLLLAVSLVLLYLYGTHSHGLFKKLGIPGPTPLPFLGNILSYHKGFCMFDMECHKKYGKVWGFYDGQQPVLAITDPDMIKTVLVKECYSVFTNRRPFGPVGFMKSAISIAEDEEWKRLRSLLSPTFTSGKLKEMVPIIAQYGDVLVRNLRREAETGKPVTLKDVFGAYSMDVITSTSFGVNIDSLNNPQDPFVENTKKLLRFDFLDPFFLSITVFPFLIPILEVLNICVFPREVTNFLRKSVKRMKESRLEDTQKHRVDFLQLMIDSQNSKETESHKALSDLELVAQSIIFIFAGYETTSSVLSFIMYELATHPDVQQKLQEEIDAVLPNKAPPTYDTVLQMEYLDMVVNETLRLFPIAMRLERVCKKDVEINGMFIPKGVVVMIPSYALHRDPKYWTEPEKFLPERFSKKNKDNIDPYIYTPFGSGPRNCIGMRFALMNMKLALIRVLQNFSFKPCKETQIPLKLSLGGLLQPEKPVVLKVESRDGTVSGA
Test: in vitro
Conditions: both, human liver microsomes, pH 7.4, probe testosterone (10 µM)
measurement.type: inhibition at 15 min, 10 µM (%)
Answers are plain numbers, in %.

Record request: inhibition at 15 min, 10 µM value, item S=C(N/N=C1/CCCc2cccnc21)N1CCN(c2ccccn2)CC1
-4

---

Molecular target: CYP3A (Homo sapiens, UniProt P08684)
Assay: in vitro
Settings: both, human liver microsomes, pH 7.4, probe midazolam (10 µM)
measurement.type: inhibition at 15 min, 10 µM (%)
Answers are plain numbers, in %.

Please state recorded inhibition at 15 min, 10 µM (tested on CYP3A (Homo sapiens, UniProt P08684)) of S=C(N/N=C1/CCCc2cccnc21)N1CCN(c2ccccn2)CC1
7

---

Tested on: A460
Test: in vitro IC50 against cancer cell lines, A460
Type: cell-based
Settings: Homo sapiens, 72 h; A460, NSCLC, 3 days
measurement.type: IC50 (µM)
Numbers only, in µM.

If you can, please state the reported IC50 value of S=C(N/N=C1/CCCc2cccnc21)N1CCN(c2ccccn2)CC1 [COTI-2] .
7.9

---

Test system: HT29
Assay: in vitro IC50 against cancer cell lines, HT29
Type: cell-based
Conditions: Homo sapiens, HT-29, 72 h; HT29, Colorectal Cancer, 3 days
measurement.type: pIC50
Give bare numbers, as −log10 of the molar value.

INSERT INTO assay_data (compound, subject_of_test, measurement) VALUES
  ('S=C(N/N=C1/CCCc2cccnc21)N1CCN(c2ccccn2)CC1 [COTI-2]', 'HT29', 6.92);

Now consider a different compound.
Which pIC50 value belongs to CN1CCN(C(=S)NN=C2c3ncccc3-c3cccnc32)CC1 [COTI-219] ?
6.39

---

Assay: B-A Permeability (TC7, pH 7.4/7.4)
Conditions: human, Caco-2, pH 7.4, Percent Recovery 2nd, B-A, TC7, pH 7.4/7.4; 1.0E−05 M; 2nd determination
measurement.type: recovery at 10 µM (%)
One number for each entry, in %.

Record request: recovery at 10 µM value, item COc1cc2c(c(OC)c1OC)-c1ccc(OC)c(=O)cc1[C@@H](NC(C)=O)CC2
100

---

Test: in vitro
Details: human, Caco-2, pH 7.4, Permeability Mean
measurement.type: Papp B→A at 10 µM (×10⁻⁶ cm/s)
One number for each entry, in ×10⁻⁶ cm/s.

INSERT INTO assay_data (compound, measurement) VALUES
  ('S=C(N/N=C1/CCCc2cccnc21)N1CCN(c2ccccn2)CC1 [COTI-2]', 1.4);

# lookup: Papp B→A at 10 µM of CC(C)NCC(O)COc1cccc2ccccc12 (centres unmarked) [propranolol]
18.8

---

Assay: Half-life and liver clearance rate by human liver microsomes (HLM) at 0.5 mg/mL
Assay type: in vitro ADME
Conditions: liver microsomes, 10 μmol, read-out: In vitro T½ (converted)
Hi there, I'd appreciate the recorded half-life at 10 µM for every entry that follows.
One number for each entry, in h.

I'm hoping you can list half-life at 10 µM for every compound here, please.
1. S=C(N/N=C1/CCCc2cccnc21)N1CCN(c2ccccn2)CC1 [COTI-2]
2. CN1CCN(C(=S)NN=C2c3ncccc3-c3cccnc32)CC1 [COTI-219]

1. 4.8
2. 7

---

Assay: B-A Permeability (TC7, pH 7.4/7.4)
Conditions: human, Caco-2, pH 7.4, Percent Recovery Mean, B-A, TC7, pH 7.4/7.4; 1.0E−05 M; mean
measurement.type: recovery at 10 µM (%)
Give bare numbers, in %.

recovery at 10 µM lookup needed for COc1cc2c(c(OC)c1OC)-c1ccc(OC)c(=O)cc1[C@@H](NC(C)=O)CC2 [colchicine] , thanks.
101

---

Assay: A-B Permeability (TC7, pH 7.4/7.4)
Settings: human, Caco-2, pH 7.4, Permeability 1st, A-B, TC7, pH 7.4/7.4; 1.0E−05 M; 1st determination
measurement.type: Papp A→B at 10 µM (×10⁻⁶ cm/s)
Give bare numbers, in ×10⁻⁶ cm/s.

Fill blank: measured Papp A→B at 10 µM of the compound COc1cc2c(c(OC)c1OC)-c1ccc(OC)c(=O)cc1[C@@H](NC(C)=O)CC2 is ____.
0.04

---

Test: in vitro
Format: in vitro ADME
Conditions: mixed breeds, dog, % Recovery Mean
measurement.type: recovery at 10 µM (%)
Give bare numbers, in %.

# query: recovery at 10 µM of entry S=C(N/N=C1/CCCc2cccnc21)N1CCN(c2ccccn2)CC1
37.7

---

Assay: A-B Permeability (TC7, pH 7.4/7.4) + verapamil
Type: in vitro ADME
Settings: human, Caco-2, pH 7.4, with verapamil (concentration not stated), 1.0E−05 M, 2nd determination, read-out: Percent Recovery 2nd
measurement.type: recovery at 10 µM (%)
Give bare numbers, in %.

What value of recovery at 10 µM has been reported for the following molecule? S=C(N/N=C1/CCCc2cccnc21)N1CCN(c2ccccn2)CC1
13

---

Tested on: COLO-205
Assay: Tumor cell proliferation, single agents and combinations, COLO-205
Type: cell-based, human
Details: Homo sapiens, COLO 205, read-out: Mean IC50, single agent
measurement.type: pIC50
One number for each entry, as −log10 of the molar value.

I'd like to know its pIC50. The compound in question is S=C(N/N=C1/CCCc2cccnc21)N1CCN(c2ccccn2)CC1
8.33
